From: patent US10703746B2

Documented IC50 across a set of compounds
target: IDH1 R132C (Homo sapiens, UniProt O75874, R132C); assay: IDH1 R132C enzymatic assay (NADPH depletion coupled to diaphorase/resazurin); format: biochemical; conditions: IDH1 R132C enzymatic inhibition, IC50 class
Sequence (O75874 whole entry R132C): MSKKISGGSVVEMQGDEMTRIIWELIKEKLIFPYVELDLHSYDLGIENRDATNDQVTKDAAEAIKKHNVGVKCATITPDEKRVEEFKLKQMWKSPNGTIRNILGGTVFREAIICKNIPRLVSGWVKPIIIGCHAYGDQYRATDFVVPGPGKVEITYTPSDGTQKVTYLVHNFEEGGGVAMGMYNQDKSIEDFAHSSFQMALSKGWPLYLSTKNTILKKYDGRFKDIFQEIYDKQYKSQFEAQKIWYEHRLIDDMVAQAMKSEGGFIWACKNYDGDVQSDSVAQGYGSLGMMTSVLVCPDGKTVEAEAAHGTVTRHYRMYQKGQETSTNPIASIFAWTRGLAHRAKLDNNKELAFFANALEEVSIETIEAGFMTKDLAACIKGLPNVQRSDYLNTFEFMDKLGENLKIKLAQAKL

CCc1cccc(CC)c1-n1c2c(cc(-c3nc(-c4cccc(O)c4)cs3)c1=O)C(=O)CC(C)(C)C2 | 1000 to 5000 nM

Return IC50 (reported value) for this compound: CCc1cccc(CC)c1-n1c(C=C(C)C)c(C(=O)N2CCNC(C(F)(F)F)C2)cc(-c2nc(-c3ccc(Cl)cc3)cs2)c1=O (stereo not shown) < 300 nM

Return IC50 (reported value) for this compound: `CC(C)=Cc1c(C(=O)N2CCNCC2)cc(-c2nc(-c3ccc(Cl)cc3)cs2)c(=O)n1-c1c(Cl)cccc1Cl` < 300 nM

Return IC50 (reported value) for this compound: `CCOc1ccc(Cl)cc1-n1c(CC(C)C)c(C(=O)N2CCNCC2)cc(-c2nc(-c3ccc(C(F)F)cc3)cs2)c1=O` 300 to 1000 nM
